protocol: Antiproliferative activity against human PLC/PRF/5 cells
Type: functional, cell-based
Quick list: IC50 per entry.

| entry smiles | IC50 |
| --- | --- |
| CC[C@]1(O)C[C@H]2CN(CCc3c([nH]c4ccccc34)[C@@](C(=O)OC)(c3cc4c(cc3OC)N(C=O)[C@H]3[C@@](O)(C(=O)OC)[C@H](OC(C)=O)[C@]5(CC)C=CCN6CC[C@]43[C@@H]65)C2)C1 | 12.7 nM |
| COc1ccc2c(c1O)C(=O)O[C@@H]2[C@H]1c2c(cc3c(c2OC)OCO3)CCN1C | > 2000 nM |
| CC(=O)O[C@@]12CO[C@@H]1C[C@H](O)[C@@]1(C)C(=O)[C@H](O)C3=C(C)[C@@H](OC(=O)[C@H](O)[C@@H](NC(=O)OC(C)(C)C)c4ccccc4)C[C@@](O)([C@@H](OC(=O)c4ccccc4)[C@H]21)C3(C)C.O.O.O | 12 nM |
| COc1ccc2c(c1N)C(=O)O[C@@H]2[C@H]1c2c(cc3c(c2OC)OCO3)CCN1C | 237 nM |
| C/C(=C\c1csc(C)n1)[C@@H]1C[C@@H]2O[C@]2(C)CCC[C@H](C)[C@H](O)[C@@H](C)C(=O)C(C)(C)[C@@H](O)CC(=O)O1 | 3.8 nM |
| COc1ccc2c(c1OC)C(=O)O[C@@H]2[C@H]1c2c(cc3c(c2OC)OCO3)CCN1C | > 2000 nM |
